Hello, the source for this data is patent US8569344B2, in case you need it.

- subject.of.test: human α1G T-type channels (Homo sapiens, UniProt O43497)
- Construct: expressed in transfected cells; host or cells: HEK 293
- Sequence (O43497 whole entry): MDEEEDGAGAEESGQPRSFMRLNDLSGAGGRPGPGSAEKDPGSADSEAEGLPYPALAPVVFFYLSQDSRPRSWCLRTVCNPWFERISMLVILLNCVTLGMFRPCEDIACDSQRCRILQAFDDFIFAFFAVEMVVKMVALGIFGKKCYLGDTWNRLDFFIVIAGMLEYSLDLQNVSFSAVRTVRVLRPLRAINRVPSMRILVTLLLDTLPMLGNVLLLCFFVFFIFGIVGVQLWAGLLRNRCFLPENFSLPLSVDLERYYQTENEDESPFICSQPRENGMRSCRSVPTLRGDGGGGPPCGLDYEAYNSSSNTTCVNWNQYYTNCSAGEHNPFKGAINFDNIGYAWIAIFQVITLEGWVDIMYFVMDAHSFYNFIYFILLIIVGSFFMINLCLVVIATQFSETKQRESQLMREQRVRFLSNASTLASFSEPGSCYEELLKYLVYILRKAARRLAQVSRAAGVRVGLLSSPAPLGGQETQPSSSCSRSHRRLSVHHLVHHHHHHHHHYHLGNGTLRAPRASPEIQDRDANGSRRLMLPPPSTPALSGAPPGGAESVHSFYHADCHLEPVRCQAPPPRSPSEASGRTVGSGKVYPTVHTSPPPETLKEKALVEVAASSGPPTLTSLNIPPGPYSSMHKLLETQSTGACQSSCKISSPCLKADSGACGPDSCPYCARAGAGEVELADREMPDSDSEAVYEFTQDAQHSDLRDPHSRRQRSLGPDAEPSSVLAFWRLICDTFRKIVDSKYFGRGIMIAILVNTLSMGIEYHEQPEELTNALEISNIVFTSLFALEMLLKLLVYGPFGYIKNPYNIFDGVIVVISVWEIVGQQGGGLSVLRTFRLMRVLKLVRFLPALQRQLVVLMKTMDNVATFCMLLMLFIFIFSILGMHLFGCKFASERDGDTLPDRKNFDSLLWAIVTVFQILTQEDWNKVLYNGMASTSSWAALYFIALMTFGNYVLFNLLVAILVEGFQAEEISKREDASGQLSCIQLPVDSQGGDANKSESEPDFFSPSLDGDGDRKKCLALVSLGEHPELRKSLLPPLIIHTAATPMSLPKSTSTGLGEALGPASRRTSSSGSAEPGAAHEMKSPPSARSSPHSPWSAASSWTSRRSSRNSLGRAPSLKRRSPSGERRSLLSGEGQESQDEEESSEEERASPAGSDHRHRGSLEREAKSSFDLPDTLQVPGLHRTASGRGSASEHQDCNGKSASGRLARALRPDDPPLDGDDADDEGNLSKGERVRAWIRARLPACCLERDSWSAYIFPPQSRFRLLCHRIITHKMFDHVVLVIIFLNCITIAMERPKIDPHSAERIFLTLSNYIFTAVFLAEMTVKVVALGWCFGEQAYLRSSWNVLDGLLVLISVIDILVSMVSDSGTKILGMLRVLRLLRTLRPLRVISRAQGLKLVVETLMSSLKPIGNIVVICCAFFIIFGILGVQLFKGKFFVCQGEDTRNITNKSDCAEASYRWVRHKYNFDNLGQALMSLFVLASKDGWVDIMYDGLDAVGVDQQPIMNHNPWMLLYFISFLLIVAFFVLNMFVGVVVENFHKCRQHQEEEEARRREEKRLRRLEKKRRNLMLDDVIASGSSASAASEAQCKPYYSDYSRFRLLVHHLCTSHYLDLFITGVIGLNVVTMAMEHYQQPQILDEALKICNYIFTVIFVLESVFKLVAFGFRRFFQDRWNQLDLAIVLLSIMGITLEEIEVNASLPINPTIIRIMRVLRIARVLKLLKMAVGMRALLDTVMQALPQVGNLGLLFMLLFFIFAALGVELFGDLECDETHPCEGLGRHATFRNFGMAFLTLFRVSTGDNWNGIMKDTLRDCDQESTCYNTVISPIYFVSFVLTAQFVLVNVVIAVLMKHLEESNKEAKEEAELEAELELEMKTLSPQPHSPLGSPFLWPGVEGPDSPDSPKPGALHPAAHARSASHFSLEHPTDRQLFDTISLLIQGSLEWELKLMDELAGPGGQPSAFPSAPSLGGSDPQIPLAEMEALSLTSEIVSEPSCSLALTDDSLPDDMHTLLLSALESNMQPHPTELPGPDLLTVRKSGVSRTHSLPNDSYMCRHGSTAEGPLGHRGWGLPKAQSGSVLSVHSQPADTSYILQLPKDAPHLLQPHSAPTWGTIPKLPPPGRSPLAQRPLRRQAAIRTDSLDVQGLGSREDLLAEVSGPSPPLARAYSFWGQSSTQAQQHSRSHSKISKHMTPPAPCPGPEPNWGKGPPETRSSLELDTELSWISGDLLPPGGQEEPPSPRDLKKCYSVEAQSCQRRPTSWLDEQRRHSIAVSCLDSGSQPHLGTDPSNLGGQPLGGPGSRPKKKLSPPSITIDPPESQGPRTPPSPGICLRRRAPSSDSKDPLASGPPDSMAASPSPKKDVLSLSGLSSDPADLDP
- assay.details: T-type calcium channel block, whole cell patch clamp in HEK cells (α1G)
- Format: cell-based
- assay.setup: HEK cells, patch clamp, mainly non-inactivated protocol; values above 10 μM shown as 10 μM, below 0.30 μM shown as 0.30 μM; read-out: T-type Calcium Channel Block α1G IC50
measurement.name: IC50

[[record]]
compound = "CC(C)(C)C(CN1CCC(CC(=O)NC(c2cccc(F)c2)c2cccc(F)c2)CC1)NS(C)(=O)=O (centres unmarked) [Compound 219]"
measurement = "> 10 µM"

[[record]]
compound = "O=C(NCC1CCN(CCNC(=O)C2CCCC2)CC1)c1cc(Cl)cc(C(F)(F)F)c1 [Compound 405]"
measurement = "< 0.3 µM"

[[record]]
compound = "Cc1cc(C)cc(C(=O)NCC2CCN(CC(=O)N3CCC[C@H]3C(F)(F)F)CC2)c1 [Compound 463]"
measurement = "< 0.3 µM"

[[record]]
compound = "CCCNC(=O)CN1CCC(CNC(=O)c2cccc(Cl)c2)CC1 [Compound 451]"
measurement = "> 10 µM"

[[record]]
compound = "CC(C)(NC(=O)CN1CCC(CNC(=O)c2cc(F)cc(Cl)c2)CC1)C(F)(F)F [Compound 461]"
measurement = "< 0.3 µM"

[[record]]
compound = "Cc1cc(C)cc(C(=O)NCC2CCN(CC(=O)N(C)C(C)(C)C)CC2)c1 [Compound 539]"
measurement = "1.68 µM"

[[record]]
compound = "CC(C)(F)C(=O)NCCN1CCC(CNC(=O)c2cc(C(F)(F)F)cc(C(F)(F)F)c2)CC1 [Compound 335]"
measurement = "0.33 µM"

[[record]]
compound = "O=C(NCC1CCN(CC(=O)N2CCC[C@H]2C(F)(F)F)CC1)c1cccc(Cl)c1 [Compound 469]"
measurement = "< 0.3 µM"

[[record]]
compound = "COc1cc(F)cc(C(=O)NCC2CCN(CCNS(=O)(=O)C(F)(F)F)CC2)c1 [Compound 325]"
measurement = "6.58 µM"

[[record]]
compound = "CC(C)(C)NC(=O)CN1CCC(CNC(=O)C2(c3ccc(Cl)cc3)CCCC2)CC1 [Compound 428]"
measurement = "< 0.3 µM"

[[record]]
compound = "CCNC(=O)N(C)CCN1CCC(CNC(=O)c2cc(F)cc(C(F)(F)F)c2)CC1 [Compound 524]"
measurement = "> 10 µM"

[[record]]
compound = "CC(C)(C)OC(=O)NCCN1CCC(CNC(=O)c2cc(Br)cc(C(F)(F)F)c2)CC1 [Compound 41]"
measurement = "< 0.3 µM"

[[record]]
compound = "CN(CCN1CCC(CNC(=O)c2cc(F)cc(C(F)(F)F)c2)CC1)C(=O)C1(C(F)(F)F)CCCC1 [Compound 522]"
measurement = "< 0.3 µM"

[[record]]
compound = "O=C(NCC1CCN(CCNC(=O)C2CCCC2)CC1)c1cccc(Br)c1 [Compound 400]"
measurement = "1.5 µM"

[[record]]
compound = "O=C(CN1CCC(CNC(=O)c2cc(F)cc(Cl)c2)CC1)NC1CCCC1 [Compound 531]"
measurement = "< 0.3 µM"

[[record]]
compound = "CC(C)(C)Oc1cccc(C(=O)NCC2CCN(CCNS(=O)(=O)C3CC3)CC2)c1 [Compound 229]"
measurement = "> 10 µM"

[[record]]
compound = "Cc1cc(F)cc(C(=O)NCC2CCN(CC(=O)NC(C)(C)C)CC2)c1 [Compound 363]"
measurement = "< 0.3 µM"

[[record]]
compound = "COc1cc(F)cc(C(=O)NCC2CCN(CC(=O)NC(C)(C)C)CC2)c1 [Compound 366]"
measurement = "< 0.3 µM"

[[record]]
compound = "CC(C)(C)[S+]([O-])NCCN1CCC(CNC(=O)c2cc(F)cc(C(F)(F)F)c2)CC1 (centres unmarked) [Compound 537]"
measurement = "2.47 µM"

[[record]]
compound = "CC(C)(C)NC(=O)CN1CCC(CNC(=O)c2cc(Br)cc(Br)c2)CC1 [Compound 384]"
measurement = "< 0.3 µM"

[[record]]
compound = "COc1cc(OC)cc(C(=O)NCC2CCN(CC(=O)NC(C)(C)C(F)(F)F)CC2)c1 [Compound 457]"
measurement = "< 0.3 µM"

[[record]]
compound = "Cc1cc(F)cc(C(=O)NCC2CCN(CC(=O)N(C)C(C)(C)C)CC2)c1 [Compound 540]"
measurement = "1.4 µM"

[[record]]
compound = "O=C(NCC1CCN(C(=O)CNC2CC2)CC1)c1cc(C(F)(F)F)cc(C(F)(F)F)c1 [Compound 257]"
measurement = "3.21 µM"

[[record]]
compound = "CC(C)(C)NS(=O)(=O)CCN1CCC(CNC(=O)c2cc(F)cc(C(F)(F)F)c2)CC1 [Compound 514]"
measurement = "< 0.3 µM"

[[record]]
compound = "CC1(NC(=O)CN2CCC(CNC(=O)c3cc(C(F)(F)F)cc(C(F)(F)F)c3)CC2)CCCCC1 [Compound 431]"
measurement = "< 0.3 µM"

[[record]]
compound = "N#CC1CCN(CC(=O)N2CCC(CNC(=O)c3cc(C(F)(F)F)cc(C(F)(F)F)c3)CC2)CC1 [Compound 259]"
measurement = "> 10 µM"

[[record]]
compound = "COc1cc(OC)cc(C(=O)NCC2CCN(CCNC(=O)C3(C(F)(F)F)CC3)CC2)c1 [Compound 500]"
measurement = "< 0.3 µM"

[[record]]
compound = "CC(C)(C)C(=O)NCCN1CCC(CNC(=O)c2cc(Cl)cc(Cl)c2)CC1 [Compound 298]"
measurement = "< 0.3 µM"

[[record]]
compound = "O=C(NCC1CCN(C(=O)CN2CCCC(O)C2)CC1)c1cc(C(F)(F)F)cc(C(F)(F)F)c1 (centres unmarked) [Compound 240]"
measurement = "> 10 µM"

[[record]]
compound = "COCC(COC)NC(=O)CN1CCC(CNC(=O)c2cc(F)cc(C(F)(F)F)c2)CC1 [Compound 354]"
measurement = "1.84 µM"

[[record]]
compound = "CN(CC(=O)N1CCC(CNC(=O)c2cc(C(F)(F)F)cc(C(F)(F)F)c2)CC1)C1CCCCC1 [Compound 246]"
measurement = "1.31 µM"

[[record]]
compound = "CCC(O)(C(=O)N1CCC(CNC(=O)c2cc(C(F)(F)F)cc(C(F)(F)F)c2)CC1)C(C)(C)C (centres unmarked) [Compound 90]"
measurement = "4.27 µM"

